target: Mitogen-activated protein kinase kinase kinase kinase 2 (Homo sapiens) (UniProt Q12851); settings: at 1 µM;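 also: reported value is a mean of MAP4K2 inhibition at 1 µM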
Sequence (Q12851 whole entry): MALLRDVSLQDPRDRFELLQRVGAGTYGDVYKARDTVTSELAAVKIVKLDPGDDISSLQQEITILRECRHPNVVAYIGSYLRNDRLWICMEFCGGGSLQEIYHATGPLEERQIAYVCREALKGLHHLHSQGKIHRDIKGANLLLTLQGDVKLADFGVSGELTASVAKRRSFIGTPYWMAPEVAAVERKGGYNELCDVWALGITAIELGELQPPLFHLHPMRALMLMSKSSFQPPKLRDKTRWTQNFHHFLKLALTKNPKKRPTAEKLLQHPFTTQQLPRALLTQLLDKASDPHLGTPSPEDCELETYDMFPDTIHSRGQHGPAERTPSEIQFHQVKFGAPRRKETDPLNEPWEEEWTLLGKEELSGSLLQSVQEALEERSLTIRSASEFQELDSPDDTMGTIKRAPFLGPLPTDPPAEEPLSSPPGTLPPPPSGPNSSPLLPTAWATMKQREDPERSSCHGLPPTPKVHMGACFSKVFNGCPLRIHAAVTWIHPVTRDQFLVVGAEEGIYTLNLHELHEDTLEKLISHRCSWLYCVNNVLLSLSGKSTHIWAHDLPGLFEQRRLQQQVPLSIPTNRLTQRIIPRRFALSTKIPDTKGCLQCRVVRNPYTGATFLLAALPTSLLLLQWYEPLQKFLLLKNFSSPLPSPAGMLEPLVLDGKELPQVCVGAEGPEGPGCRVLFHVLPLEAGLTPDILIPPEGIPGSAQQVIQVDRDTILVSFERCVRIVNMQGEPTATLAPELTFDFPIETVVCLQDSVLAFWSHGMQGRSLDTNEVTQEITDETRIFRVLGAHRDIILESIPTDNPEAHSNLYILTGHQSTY
Labels assigned by inhibition range: band 1 (below 4%), band 2 (4% to below 10%), band 3 (10% or more)

{"columns": ["compound", "tgt", "assigned-label"],
 "data": [
  ["COc1cccc(-n2cnc3c(N/N=C/c4ccncc4)ncnc32)c1", "Mitogen-activated protein kinase kinase kinase kinase 2 (Homo sapiens) (UniProt Q12851)", "band 1"],
  ["CN(c1ccc(NC(=O)Nc2c(Cl)cccc2Cl)cc1)c1ccnc(Nc2cccc(CS(C)(=O)=O)c2)n1", "Mitogen-activated protein kinase kinase kinase kinase 2 (Homo sapiens) (UniProt Q12851)", "band 3"],
  ["O=C(Nc1n[nH]c2cc(-c3cc(F)ccc3F)ccc12)C1CC1", "Mitogen-activated protein kinase kinase kinase kinase 2 (Homo sapiens) (UniProt Q12851)", "band 2"],
  ["CS(=O)(=O)CCNCc1cc(-c2cc3c(Nc4ccc(OCc5cccc(F)c5)c(Cl)c4)ncnc3s2)cs1", "Mitogen-activated protein kinase kinase kinase kinase 2 (Homo sapiens) (UniProt Q12851)", "band 1"],
  ["COc1cccc(/C=N/Nc2ncnc3c2cnn3-c2cccc(OC)c2)c1", "Mitogen-activated protein kinase kinase kinase kinase 2 (Homo sapiens) (UniProt Q12851)", "band 1"],
  ["COc1cc2ncn(-c3cc(OCc4ccccc4C(F)(F)F)c(C(C)=O)s3)c2cc1OC", "Mitogen-activated protein kinase kinase kinase kinase 2 (Homo sapiens) (UniProt Q12851)", "band 2"],
  ["COc1cc(C)c(N(C)C(=O)CN(C)C)cc1Nc1nc(Nc2cccc(F)c2C(N)=O)c2cc[nH]c2n1", "Mitogen-activated protein kinase kinase kinase kinase 2 (Homo sapiens) (UniProt Q12851)", "band 1"],
  ["COc1cc2ncn(-c3cc(OCc4cccs4)c(C(N)=O)s3)c2cc1OC", "Mitogen-activated protein kinase kinase kinase kinase 2 (Homo sapiens) (UniProt Q12851)", "band 3"],
  ["Cc1ccc(C(=O)NC2CCC2)cc1-c1ccc(C(=O)NCC2CC2)cc1", "Mitogen-activated protein kinase kinase kinase kinase 2 (Homo sapiens) (UniProt Q12851)", "band 1"],
  ["O=C1Nc2ccc(I)cc2C1=Cc1cc(Br)c(O)c(Br)c1", "Mitogen-activated protein kinase kinase kinase kinase 2 (Homo sapiens) (UniProt Q12851)", "band 1"],
  ["COc1cc(Nc2ncc(-c3ccccc3)o2)cc(OC)c1OC", "Mitogen-activated protein kinase kinase kinase kinase 2 (Homo sapiens) (UniProt Q12851)", "band 3"]
]}

* * *

Below, each of the compounds is paired with its reported inhibition value.
molecular target: Maternal embryonic leucine zipper kinase (Homo sapiens); details: at 1 µM;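 also: each value is the mean inhibition of MELK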

{"columns": ["compound", "tgt", "inhibition (%)"],
 "data": [
  ["O=C(Nc1n[nH]c2nc(-c3ccco3)ccc12)C1CC1", "Maternal embryonic leucine zipper kinase (Homo sapiens)", 2.05],
  ["Clc1ccc(CNc2nccc(-c3cnn4ncccc34)n2)cc1", "Maternal embryonic leucine zipper kinase (Homo sapiens)", 16.4],
  ["CS(=O)(=O)CCNCc1cc(-c2cc3c(Nc4ccc(OCc5cccc(F)c5)c(Cl)c4)ncnc3s2)cs1", "Maternal embryonic leucine zipper kinase (Homo sapiens)", 10.5],
  ["CNC(=O)c1cncc(/C=C/c2c(C)cccc2C)c1", "Maternal embryonic leucine zipper kinase (Homo sapiens)", 0.37],
  ["Cc1nnc(-c2ccc(C)c(-c3ccc(C(=O)NCc4ccc(Cl)cc4)cc3)c2)o1", "Maternal embryonic leucine zipper kinase (Homo sapiens)", 5.52],
  ["CN(C)CCOc1ccc(-c2cc(-c3ccc4c(c3)CCC4=NO)c(-c3ccncc3)o2)cc1", "Maternal embryonic leucine zipper kinase (Homo sapiens)", -1.71],
  ["CCS(=O)(=O)c1ccc(OC)c(Nc2ncc(-c3cccc(-c4ccccc4F)c3)o2)c1", "Maternal embryonic leucine zipper kinase (Homo sapiens)", 3.29],
  ["COC(=O)Nc1nc2ccc(Sc3ccc(NC(=O)Nc4cc(C(F)(F)F)ccc4F)cc3)cc2[nH]1", "Maternal embryonic leucine zipper kinase (Homo sapiens)", -2.88],
  ["CN1CCN(CCCNc2nc3ccc(Oc4ccc(NC(=O)Nc5cc(C(F)(F)F)ccc5F)cc4)cc3[nH]2)CC1", "Maternal embryonic leucine zipper kinase (Homo sapiens)", -0.26],
  ["C/C(Nc1ccc(S(N)(=O)=O)cc1)=C1/C(=O)Nc2ccccc21", "Maternal embryonic leucine zipper kinase (Homo sapiens)", 41.9],
  ["Cc1ccc(C(=O)NC(C)C)cc1-c1ccc(C(=O)NCC2CC2)cc1", "Maternal embryonic leucine zipper kinase (Homo sapiens)", -2.99],
  ["O=C1Nc2ccccc2/C1=C/Nc1ccc(-n2cncn2)cc1", "Maternal embryonic leucine zipper kinase (Homo sapiens)", 25.8]
]}

* * *

biological target: Tyrosine-protein kinase Fer (Homo sapiens); details: at 1 µM
Description: GSK_PKIS: FER mean inhibition at 1 uM [Nanosyn]
Would you please tag the item true (1) when its inhibition is 5% or above, and false (0) when it is below?

{"columns": ["compound", "assigned-label"],
 "data": [
  ["Fc1ccc(-c2c(-c3ccncc3)nc3n2CCS3)cc1", "false (0)"],
  ["C[C@@H](Oc1cc(-n2cnc3ccc(OC4CCN(C)CC4)cc32)sc1C(N)=O)c1ccccc1Cl", "false (0)"],
  ["C#Cc1cccc(Nc2ncnc3ccc(OCCCCNCCS(C)(=O)=O)cc23)c1", "false (0)"],
  ["COc1ccc2ncn(-c3cc(O[C@H](C)c4ccccc4Cl)c(C(N)=O)s3)c2c1", "false (0)"],
  ["Clc1ccc(CNc2nccc(-c3cnn4ncccc34)n2)cc1", "false (0)"],
  ["COc1cc2ncn(-c3cc(OCCc4ccccc4)c(C(N)=O)s3)c2cc1OC", "false (0)"],
  ["COc1cc(Nc2ncc(-c3ccccc3)o2)cc(OC)c1OC", "false (0)"],
  ["Fc1ccc(-c2ncn(C3CCNCC3)c2-c2ccnc(Oc3ccc(F)c(F)c3)n2)cc1", "false (0)"],
  ["CCC(=O)Nc1ccc(C)c(-c2ccc(C(=O)NCC3CC3)cc2)c1", "false (0)"],
  ["NC(=O)c1cc(-c2ccncc2)cc(-c2ccccc2)c1N", "false (0)"],
  ["CS(=O)(=O)CCNCc1cc(-c2cc3c(Nc4ccc(OCc5cccc(F)c5)c(Cl)c4)ncnc3s2)cs1", "true (1)"],
  ["CN(c1ccc(NC(=O)Nc2c(Cl)cccc2Cl)cc1)c1ccnc(Nc2cccc(CS(C)(=O)=O)c2)n1", "true (1)"],
  ["Cc1nnc(-c2ccc(C)c(-c3ccc(C(=O)NCc4ccc(Cl)cc4)cc3)c2)o1", "false (0)"],
  ["CN1CCN(CCCNc2nc3ccc(Oc4ccc(NC(=O)Nc5cc(C(F)(F)F)ccc5F)cc4)cc3[nH]2)CC1", "false (0)"],
  ["NS(=O)(=O)c1ccc(Nc2cc(-c3ccc(O)c(F)c3)n[nH]2)cc1", "true (1)"],
  ["COc1cc(C)c(N(C)C(=O)CN(C)C)cc1Nc1nc(Nc2cccc(F)c2C(N)=O)c2cc[nH]c2n1", "true (1)"],
  ["COc1cc(Nc2ncc3c(C)nc(-c4cccc(C(F)(F)F)c4)n3n2)cc(OC)c1OC", "true (1)"],
  ["C/C(Nc1ccc(S(N)(=O)=O)cc1)=C1/C(=O)Nc2ccccc21", "true (1)"],
  ["COc1ccc(-c2ccc3c(NC(=O)C4CC4)n[nH]c3n2)cc1", "false (0)"]
]}

* * *

target: Ribosomal protein S6 kinase alpha-4 (Homo sapiens); conditions: at 0.1 µM;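 also: values are mean inhibition of MSK2, from GSK PKIS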
quantity-kind: inhibition (%)

{"columns": ["compound", "unit-abbreviation", "result"],
 "data": [
  ["Cc1ccc(NC(=O)c2ccoc2)cc1-c1ccc(C(=O)NCC2CC2)cc1", "%", 1.78],
  ["COc1ccc(-c2ccc3c(NC(=O)C4CC4)n[nH]c3n2)cc1", "%", 2.27],
  ["N#Cc1ccc(Oc2nccc(-c3c(-c4ccc(F)cc4)ncn3C3CCNCC3)n2)cc1", "%", 3.03],
  ["COc1cc(Nc2ncc(-c3ccccc3)o2)cc(OC)c1OC", "%", -1.71],
  ["COc1cccc(/C=N/Nc2ncnc3c2cnn3-c2cccc(OC)c2)c1", "%", 2.48]
]}

* * *

target: Calcium/calmodulin-dependent protein kinase type II subunit delta (Homo sapiens) (UniProt Q13557); conditions: at 0.1 µM;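 also: percent inhibition values are means, taken from the GSK PKIS kinase profiling set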
Sequence (Q13557 whole entry): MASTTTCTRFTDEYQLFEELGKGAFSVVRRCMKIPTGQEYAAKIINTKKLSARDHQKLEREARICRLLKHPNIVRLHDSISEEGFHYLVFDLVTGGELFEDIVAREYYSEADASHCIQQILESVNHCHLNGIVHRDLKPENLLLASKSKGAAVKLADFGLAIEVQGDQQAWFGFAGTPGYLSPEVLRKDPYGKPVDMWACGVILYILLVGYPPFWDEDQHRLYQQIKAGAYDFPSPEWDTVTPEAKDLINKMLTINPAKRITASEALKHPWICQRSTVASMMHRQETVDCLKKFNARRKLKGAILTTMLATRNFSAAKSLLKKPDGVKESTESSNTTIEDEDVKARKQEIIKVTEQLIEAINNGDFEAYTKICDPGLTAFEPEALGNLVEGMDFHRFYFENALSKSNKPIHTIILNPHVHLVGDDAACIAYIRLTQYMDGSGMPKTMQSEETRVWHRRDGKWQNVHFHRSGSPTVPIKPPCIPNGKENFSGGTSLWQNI
Listed compounds paired with reported inhibition

{"columns": ["compound", "inhibition, %"],
 "data": [
  ["COc1cc2ncn(-c3cc(OCc4cccs4)c(C(N)=O)s3)c2cc1OC", 0.52],
  ["O=C(Nc1ccc(Oc2ccc3[nH]c(NC(=O)c4ccccc4)nc3c2)cc1)Nc1cc(C(F)(F)F)ccc1F", 2.01],
  ["COc1ccc2ncn(-c3cc(O[C@H](C)c4ccccc4Cl)c(C(N)=O)s3)c2c1", 2.08],
  ["NS(=O)(=O)c1ccc(N/N=C2\\C(=O)Nc3ccc(C(=O)NCCCn4ccnc4)cc32)cc1", 2.56],
  ["COc1cc(Nc2ncc3c(C)nc(-c4cccc(Oc5ccccc5)c4)n3n2)cc(OC)c1OC", 3.36],
  ["CN(C)c1ccc2c(c1)/C(=C/Nc1ccc(S(N)(=O)=O)cc1)C(=O)N2", 2.54],
  ["CCS(=O)(=O)c1ccc(OC)c(Nc2ncc(-c3ccccc3Cl)o2)c1", 1.45],
  ["CS(=O)(=O)CCNCc1ccc(-c2ccc3ncnc(Nc4ccc(OCc5ccccc5)c(Br)c4)c3c2)o1", 2.65],
  ["Clc1ccc(CNc2nccc(-c3cnn4ncccc34)n2)cc1", 2.06],
  ["COc1cccc(-n2cnc3c(N/N=C/c4ccncc4)ncnc32)c1", -1.07],
  ["NC(=O)c1ccc(Oc2nccc(-c3c(-c4ccc(F)cc4)ncn3C3CCNCC3)n2)cc1", 4.24],
  ["CN1CCN(CCCNc2nc3ccc(Oc4ccc(NC(=O)Nc5cc(C(F)(F)F)ccc5F)cc4)cc3[nH]2)CC1", 3.68],
  ["COc1ccc(-c2ccc3c(NC(=O)C4CC4)n[nH]c3n2)cc1", 0.17],
  ["CCS(=O)(=O)c1ccc(OC)c(Nc2ncc(-c3cccc(-c4ccccc4F)c3)o2)c1", 1.21]
]}
